Experiment: binders of probe aFSTL3 on microarray, primary screen, stem cell growth factor project, biochemical, small-molecule microarray, fluorescence 635/667 (AID 1064);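 note: measures binding of the biotinylated anti-FSTL3 antibody to printed compounds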
Conditions: higher = more signal
Cut-off 0.01 on composite z-score, inclusive. At or above means MET; below means NOT MET.

Field: example entries. Status: answers known.
compound-string: O=C(NN=C1C[C@@H](O)[C@@H](O)[C@@H]2[C@@H]3C(=O)N(c4cccc(Oc5ccccc5)c4)C(=O)[C@@H]3CC[C@H]12)OCc1ccccc1
group-label: NOT MET
--
compound-string: C#CCCCON=C1C[C@@H](O)[C@@H](O)[C@@H]2[C@@H]3C(=O)N(Cc4ccccc4)C(=O)[C@@H]3CC[C@H]12
group-label: NOT MET
--
compound-string: CC(C)(C)OC(=O)CC[C@]1(C(=O)NCc2ccccc2)N=C(c2ccc(OCCCO)cc2)O[C@H]1c1ccccc1
group-label: MET
--
compound-string: COc1ccc(COC(=O)NN=C2C[C@@H](O)[C@@H](O)[C@@H]3[C@@H]4C(=O)N(c5ccc(F)cc5F)C(=O)[C@@H]4CC[C@@H]23)cc1
group-label: MET
--
compound-string: COCCCNC(=O)[C@@]1(C)c2ccccc2C(=O)N(Cc2ccc(OC(F)(F)F)cc2)[C@H]1c1ccc(CO)cc1
group-label: MET
--
compound-string: O=C1[C@H]2[C@H]3[C@H](O)[C@H](O)CC(=NOC[C@@H](O)COCc4ccco4)[C@H]3CC[C@H]2C(=O)N1c1cccc(Oc2ccccc2)c1
group-label: NOT MET

Read the next record carefully.
Kindly determine if composite z-score recorded for `CO[C@@H]1COC(=O)CC=C[C@@H](C)[C@H](OC)COC(=O)[C@H](COCc2ccccc2)NC(=O)CC=C[C@H]1C` is above or exactly 0.01.
MET

====

Tested on: Neuregulin-1 EGF-like domain
Assay: binders of neuregulin-1 EGF-like domain, primary screen, biochemical, small-molecule microarray, 635 nm fluorescence (AID 1081);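 note: binding of the protein to compounds printed on small-molecule microarray slides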
Settings: small-molecule microarray binding, higher = more signal
Known composite z-score of a selection of compounds
Just the number.

Past entries and their recorded results:
compound: CCOC(=O)[C@H](Cc1ccccc1)NC(=O)CCC1CC(OC(=O)NCc2ccc3c(c2)OCO3)CC2(CCCC(COC(=O)NCC(c3ccccc3)c3ccccc3)O2)O1 (some centres not stated)
result-number: 1.03
//
compound: CCOC(=O)CCN1C(=O)[C@H]2[C@H]3[C@H](O)[C@H](O)CC(=NOC[C@@H](O)COCc4ccco4)[C@@H]3CC[C@H]2C1=O
result-number: 0.486
//
compound: CCCC[C@@H](O)C1=C(C)C[C@H]2C(=O)N(Cc3ccccc3)C(=O)[C@H]2[C@H]1CO
result-number: -0.322
//
compound: C=CCC(OC(C)=O)[C@@H]1[C@@H](N(Cc2cc3ccccc3o2)C(=O)Cc2ccc(F)cc2)c2cc(OCCCO)ccc2N1C(=O)Cc1ccc(OC)cc1 (some centres not stated)
result-number: -0.707
//
compound: C#CCCCON=C1C[C@@H](O)[C@@H](O)[C@@H]2[C@@H]3C(=O)N(c4cccc(Oc5ccccc5)c4)C(=O)[C@@H]3CC[C@@H]12
result-number: 0.598

Which value of composite z-score has been reported for COC(=O)[C@@H]1CC[C@H](C)[C@@H](c2ccc(C)cc2)N1C(=O)c1ccc(C=NOC(C)CN2CCCCc3nc(C)c(C)cc32)cc1 (some centres not stated) in the records?
0.312

Which value of composite z-score has been reported for `COC(=O)CC=C[C@@H](C)[C@H](OC)c1ccccc1Br` in the records?
-0.26

The reported measurements were obtained from PubChem BioAssay.
